Values were extracted from paper PMC4336329.

# hERG current change (%, negative = inhibition) at 10uM values compiled below
test_target: human ether-à-go-go-related gene (hERG) potassium channel (human, UniProt Q12809)
Sequence (Q12809 whole entry, looked up): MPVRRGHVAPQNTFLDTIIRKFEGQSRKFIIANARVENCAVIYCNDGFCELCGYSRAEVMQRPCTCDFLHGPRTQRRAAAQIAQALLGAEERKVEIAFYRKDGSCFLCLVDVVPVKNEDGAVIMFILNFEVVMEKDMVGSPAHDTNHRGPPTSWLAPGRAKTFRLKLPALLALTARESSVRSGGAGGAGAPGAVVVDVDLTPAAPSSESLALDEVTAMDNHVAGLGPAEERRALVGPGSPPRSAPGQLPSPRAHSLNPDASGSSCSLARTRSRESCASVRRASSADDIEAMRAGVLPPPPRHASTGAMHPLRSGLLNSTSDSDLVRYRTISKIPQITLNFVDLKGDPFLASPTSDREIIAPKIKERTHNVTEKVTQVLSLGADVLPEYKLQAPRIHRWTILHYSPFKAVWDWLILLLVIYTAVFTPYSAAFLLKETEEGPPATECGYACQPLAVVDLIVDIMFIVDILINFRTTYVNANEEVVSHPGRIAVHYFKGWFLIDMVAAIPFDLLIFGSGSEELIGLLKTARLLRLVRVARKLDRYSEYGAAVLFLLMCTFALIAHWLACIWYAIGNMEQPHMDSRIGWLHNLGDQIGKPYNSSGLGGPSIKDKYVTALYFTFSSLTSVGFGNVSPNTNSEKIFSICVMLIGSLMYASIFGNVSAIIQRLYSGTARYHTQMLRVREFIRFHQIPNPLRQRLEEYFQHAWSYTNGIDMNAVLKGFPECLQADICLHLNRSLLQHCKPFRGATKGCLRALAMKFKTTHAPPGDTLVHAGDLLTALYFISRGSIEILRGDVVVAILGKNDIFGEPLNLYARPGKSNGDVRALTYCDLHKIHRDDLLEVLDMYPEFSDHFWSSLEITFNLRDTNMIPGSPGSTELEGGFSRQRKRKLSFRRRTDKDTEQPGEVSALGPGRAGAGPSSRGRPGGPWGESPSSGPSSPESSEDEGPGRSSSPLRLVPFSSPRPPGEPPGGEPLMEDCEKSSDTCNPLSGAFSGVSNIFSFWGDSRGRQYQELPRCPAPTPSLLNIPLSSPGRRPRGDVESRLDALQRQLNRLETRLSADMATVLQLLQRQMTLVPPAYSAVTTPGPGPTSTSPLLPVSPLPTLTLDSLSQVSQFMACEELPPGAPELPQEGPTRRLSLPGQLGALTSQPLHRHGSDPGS
procedure_details: primary screen, population patch clamp on CHO cells stably expressing hERG; higher = less effect of the substance
Out of some 310,000 compounds screened, about 14,000 (4.5%) showed an effect of 50% or more. Effects have a minus sign here. What follows is part of a selection rich in strong results, with near analogues and random picks from the rest.
Report only the number, with the unit % understood.

Take a look at these entries with their results.
{"columns": ["compound", "test_target", "numeric_readout"],
 "data": [
  ["CCO.N#Cc1c(SC(C(=O)O)c2ccccc2)nc2c(c1-c1cccs1)CCCC2 (stereo not drawn)", "human ether-à-go-go-related gene (hERG) potassium channel (human, UniProt Q12809)", 25.2],
  ["O=C(/C=C/c1ccccc1)N(Cc1cccc(Cl)c1)C1CCS(=O)(=O)C1 (stereo not drawn)", "human ether-à-go-go-related gene (hERG) potassium channel (human, UniProt Q12809)", -25.6]
]}

Give its hERG current change (%, negative = inhibition) at 10uM value. Item: O=C(c1ccc(Cl)cc1)N(Cc1cccs1)C1CCS(=O)(=O)C1 (stereo not drawn)
-24.4

Give its hERG current change (%, negative = inhibition) at 10uM value. Item: Cc1ccc(C)c(S(=O)(=O)NCC(c2ccco2)N2CCc3ccccc3C2)c1 (stereo not drawn)
-9.3

Give its hERG current change (%, negative = inhibition) at 10uM value. Item: COc1ccc(/C=C/C(=O)N(Cc2cccs2)C2CCS(=O)(=O)C2)cc1 (stereo not drawn)
-48.6

Give its hERG current change (%, negative = inhibition) at 10uM value. Item: COc1ccc(C)cc1S(=O)(=O)NCC(c1ccco1)N1CCc2ccccc2C1 (stereo not drawn)
-62.8

Give its hERG current change (%, negative = inhibition) at 10uM value. Item: O=C(/C=C/c1ccccc1)N(Cc1cccs1)C1CCS(=O)(=O)C1 (stereo not drawn)
-30.3

Give its hERG current change (%, negative = inhibition) at 10uM value. Item: O=C(/C=C/c1ccc(Cl)cc1)N(Cc1ccccc1)C1CCS(=O)(=O)C1 (stereo not drawn)
-75

Give its hERG current change (%, negative = inhibition) at 10uM value. Item: COc1ccc(F)cc1S(=O)(=O)NCC(c1ccco1)N1CCc2ccccc2C1 (stereo not drawn)
-30.4

* * *

# hERG current change (%, negative = inhibition) at 10uM values compiled below
test_target: human ether-à-go-go-related gene (hERG) potassium channel (human, UniProt Q12809)
procedure_details: primary screen, population patch clamp on CHO cells stably expressing hERG; higher = less effect of the substance
Screen size: about 310,000 compounds; about 14,000 (4.5%) showed an effect of 50% or more. Effects have a minus sign here. The list comes from a sample in which strong results are over-represented; it also holds close analogues and randomly drawn compounds.
Report only the number, with the unit % understood.

{"columns": ["compound", "reading_unit", "numeric_readout"],
 "data": [
  ["COc1ccc(NC(=O)COC(=O)c2cc(Cl)ccc2O)cc1S(=O)(=O)N1CCCCC1", "%", 10.5],
  ["CN(C)c1cccc(C(=O)N2CCC(n3nccc3NC(=O)C3CCOC3)CC2)c1 (stereo not shown)", "%", 3.5],
  ["O=c1[nH]c(=O)n(Cc2ccccc2)c(O)c1/C=N/Nc1c(F)c(F)c(F)c(F)c1F", "%", 3.83],
  ["O=C(Cn1ncc2c3ccccc3n(Cc3ccccc3)c2c1=O)NC1CCCC1", "%", 10.1]
]}

Param readout= hERG current change (%, negative = inhibition) at 10uM; system= human ether-à-go-go-related gene (hERG) potassium channel (human, UniProt Q12809); entry= Cc1ccc(-n2nc3c(=O)n(C(C)C(=O)NCCCc4ccccc4)nc(C)c3c2C)cc1 (stereo not shown) ; returns value.
-55.2

Param readout= hERG current change (%, negative = inhibition) at 10uM; system= human ether-à-go-go-related gene (hERG) potassium channel (human, UniProt Q12809); entry= Cc1nn(C(C)C(=O)NCc2ccccc2F)c(=O)c2nn(-c3ccccc3)c(C)c12 (stereo not shown) ; returns value.
13.8

Param readout= hERG current change (%, negative = inhibition) at 10uM; system= human ether-à-go-go-related gene (hERG) potassium channel (human, UniProt Q12809); entry= O=C(CC1NCCNC1=O)Nc1ccc(Oc2ccccc2)cc1 (stereo not shown) ; returns value.
25.6

Param readout= hERG current change (%, negative = inhibition) at 10uM; system= human ether-à-go-go-related gene (hERG) potassium channel (human, UniProt Q12809); entry= Cc1cccc(NC(=O)Nc2cccc(Oc3c(F)c(F)c(F)c(F)c3F)c2)c1 ; returns value.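 Note: peak tail current of the secondary pulse compared with the same well before compound.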
8.83

Param readout= hERG current change (%, negative = inhibition) at 10uM; system= human ether-à-go-go-related gene (hERG) potassium channel (human, UniProt Q12809); entry= Cc1ccc(CCNC(=O)C(C)n2nc(C)c3c(C)n(-c4ccccc4)nc3c2=O)cc1 (stereo not shown) ; returns value.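 Note: peak tail current of the secondary pulse compared with the same well before compound.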
-36.3

Param readout= hERG current change (%, negative = inhibition) at 10uM; system= human ether-à-go-go-related gene (hERG) potassium channel (human, UniProt Q12809); entry= Cc1nn(C(C)C(=O)NCCCc2ccccc2)c(=O)c2nn(-c3ccccc3)c(C)c12 (stereo not shown) ; returns value.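 Note: peak tail current of the secondary pulse compared with the same well before compound.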
-20

Param readout= hERG current change (%, negative = inhibition) at 10uM; system= human ether-à-go-go-related gene (hERG) potassium channel (human, UniProt Q12809); entry= CCOC(=O)C(=O)N/N=C/c1ccco1 ; returns value.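 Note: peak tail current of the secondary pulse compared with the same well before compound.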
11.3
